Quick reference: remaining at 6 h, 10 μM of the listed items.
assay: Stability in fasted simulated intestinal fluid (FaSSIF); conditions: fasted simulated intestinal fluid (FaSSIF), pH 6.5, FaSSIF Stability, % remaining, 6h, pH 6.5, room temperature
Field: numeric (%). Do not append units.

C[C@@H](O)[C@H]1C(=O)N2C(C(=O)O)=C(S[C@@H]3CN[C@H](C(=O)Nc4cccc(C(=O)O)c4)C3)[C@H](C)[C@H]12 [Ertapenem, reference compound]
86.8

# input for lookup
Endpoint output: remaining at 6 h, 10 μM of C[C@@H](O)[C@H]1C(=O)N2C(C(=O)O)=C(S[C@@H]3CN[C@H](C(=O)N(C)C)C3)[C@H](C)[C@H]12 [Meropenem, reference compound] . Value?
94.1

The reported measurements were obtained from paper PMC8922279.
